# Test system: HeLa Kyoto
# Assay text: thermal stability score vs G1/S (z-score of summed log2 fold changes over temperatures); higher = more thermally stable than in G1/S
# Assay setup: cell cycle stage: early G1 (4.5 h after nocodazole release)
Hi there, I'd appreciate the recorded thermal stability score for every entry that follows.
The answer should be a number; do not append a unit.

Reported thermal stability score for MHSEAEESKEVATDVFNSKNLAVQAQKKILGKMVSKSIATTLIDDTSSEVLDELYRVTREYTQNKKEAEKIIKNLIKTVIKLAILYRNNQFNQDELALMEKFKKKVHQLAMTVVSFHQVDYTFDRNVLSRLLNECREMLHQIIQRHLTAKSHGRVNNVFDHFSDCEFLAALYNPFGNFKPHLQKLCDGINKMLDEENI [TNFAIP8] was 0.429

Reported thermal stability score for MGAQLSTLGHMVLFPVWFLYSLLMKLFQRSTPAITLESPDIKYPLRLIDREIISHDTRRFRFALPSPQHILGLPVGQHIYLSARIDGNLVVRPYTPISSDDDKGFVDLVIKVYFKDTHPKFPAGGKMSQYLESMQIGDTIEFRGPSGLLVYQGKGKFAIRPDKKSNPIIRTVKSVGMIAGGTGITPMLQVIRAIMKDPDDHTVCHLLFANQTEKDILLRPELEELRNKHSARFKLWYTLDRAPEAWDYGQGFVNEEMIRDHLPPPEEEPLVLMCGPPPMIQYACLPNLDHVGHPTERCFVF [CYB5R3] was -1.92

###

# Tested on: HeLa Kyoto
# Assay text: solubility in G1/S (NP-40 vs SDS abundance) (log2 ratio); higher = more soluble
# Assay setup: cell cycle stage: G1/S
Give 1.0 when the value for solubility in G1/S (log2) is at least 0.2. Give 0.0 when it is less.

Ask: Reported solubility in G1/S (log2) at or above 0.2? MAALGEPVRLERDICRAIELLEKLQRSGEVPPQKLQALQRVLQSEFCNAVREVYEHVYETVDISSSPEVRANATAKATVAAFAASEGHSHPRVVELPKTEEGLGFNIMGGKEQNSPIYISRIIPGGIADRHGGLKRGDQLLSVNGVSVEGEHHEKAVELLKAAQGKVKLVVRYTPKVLEEMESRFEKMRSAKRRQQT [LIN7C]
Reply: 1.0

Ask: Reported solubility in G1/S (log2) at or above 0.2? MTGLYELVWRVLHALLCLHRTLTSWLRVRFGTWNWIWRRCCRAASAAVLAPLGFTLRKPPAVGRNRRHHRHPRGGSCLAAAHHRMRWRADGRSLEKLPVHMGLVITEVEQEPSFSDIASLVVWCMAVGISYISVYDHQGIFKRNNSRLMDEILKQQQELLGLDCSKYSPEFANSNDKDDQVLNCHLAVKVLSPEDGKADIVRAAQDFCQLVAQKQKRPTDLDVDTLASLLSSNGCPDPDLVLKFGPVDSTLGFLPWHIRLTEIVSLPSHLNISYEDFFSALRQYAACEQRLGK [NUS1]
Reply: 0.0

Ask: Reported solubility in G1/S (log2) at or above 0.2? MGSTESSEGRRVSFGVDEEERVRVLQGVRLSENVVNRMKEPSSPPPAPTSSTFGLQDGNLRAPHKESTLPRSGSSGGQQPSGMKEGVKRYEQEHAAIQDKLFQVAKREREAATKHSKASLPTGEGSISHEEQKSVRLARELESREAELRRRDTFYKEQLERIERKNAEMYKLSSEQFHEAASKMESTIKPRRVEPVCSGLQAQILHCYRDRPHEVLLCSDLVKAYQRCVSAAHKG [CHCHD6]
Reply: 1.0

Ask: Reported solubility in G1/S (log2) at or above 0.2? MNSNVENLPPHIIRLVYKEVTTLTADPPDGIKVFPNEEDLTDLQVTIEGPEGTPYAGGLFRMKLLLGKDFPASPPKGYFLTKIFHPNVGANGEICVNVLKRDWTAELGIRHVLLTIKCLLIHPNPESALNEEAGRLLLENYEEYAARARLLTEIHGGAGGPSGRAEAGRALASGTEASSTDPGAPGGPGGAEGPMAKKHAGERDKKLAAKKKTDKKRALRRL [UBE2S]
Reply: 1.0

Ask: Reported solubility in G1/S (log2) at or above 0.2? MSNRVVCREASHAGSWYTASGPQLNAQLEGWLSQVQSTKRPARAIIAPHAGYTYCGSCAAHAYKQVDPSITRRIFILGPSHHVPLSRCALSSVDIYRTPLYDLRIDQKIYGELWKTGMFERMSLQTDEDEHSIEMHLPYTAKAMESHKDEFTIIPVLVGALSESKEQEFGKLFSKYLADPSNLFVVSSDFCHWGQRFRYSYYDESQGEIYRSIEHLDKMGMSIIEQLDPVSFSNYLKKYHNTICGRHPIGVLLNAITELQKNGMNMSFSFLNYAQSSQCRNWQDSSVSYAAGALTVH [MEMO1]
Reply: 0.0

Ask: Reported solubility in G1/S (log2) at or above 0.2? MRSARSTALNRGEQRAVRYYSHMKLNMAEEEDYMSDSFINVQEDIRPGLPMLRQIREARRKEEKQQEANLKNRQKSLKEEEQERRDIGLKNALGCENKGFALLQKMGYKSGQALGKSGGGIVEPIPLNIKTGKSGIGHEASLKRKAEEKLESYRKKIHMKNQAEEKAAEQFRMRLKNKQDEMKLEGDLRRSQRACQQLDVQKNIQVPREAWYWLRLEEETEEDEEEKEQDEDEYKSEDLSVLEKLQILTSYLREEHLYCIWCGTAYEDKEDLSSNCPGPTSADHD [GPATCH11]
Reply: 0.0

Ask: Reported solubility in G1/S (log2) at or above 0.2? MTTYSDKGAKPERGRFLHFHSVTFWVGNAKQATSFYCSKMGFEPLAYRGLETGSREVVSHVIKQGKIVFVLSSALNPWNKEMGDHLVKHGDGVKDIAFEVEDCDYIVQKARERGAKIMREPWVEQDKFGKVKFAVLQTYGDTTHTLVEKMNYIGQFLPGYEAPAFMDPLLPKLPKCSLEMIDHIVGNQPDQEMVSASEWYLKNLQFHRFWSVDDTQVHTEYSSLRSIVVANYEESIKMPINEPAPGKKKSQIQEYVDYNGGAGVQHIALKTEDIITAIRHLRERGLEFLSVPSTYYKQLREKLKTAKIKVKENIDALEELKILVDYDEKGYLLQIFTKPVQDRPTLFLEVIQRHNHQGFGAGNFNSLFKAFEEEQNLRGNLTNMETNGVVPGM [HPD]
Reply: 0.0

Ask: Reported solubility in G1/S (log2) at or above 0.2? MVAWRSAFLVCLAFSLATLVQRGSGDFDDFNLEDAVKETSSVKQPWDHTTTTTTNRPGTTRAPAKPPGSGLDLADALDDQDDGRRKPGIGGRERWNHVTTTTKRPVTTRAPANTLGNDFDLADALDDRNDRDDGRRKPIAGGGGFSDKDLEDIVGGGEYKPDKGKGDGRYGSNDDPGSGMVAEPGTIAGVASALAMALIGAVSSYISYQQKKFCFSIQQGLNADYVKGENLEAVVCEEPQVKYSTLHTQSAEPPPPPEPARI [CD99L2]
Reply: 0.0

Ask: Reported solubility in G1/S (log2) at or above 0.2? MEVLAAETTSQQERLQAIAEKRKRQAEIENKRRQLEDERRQLQHLKSKALRERWLLEGTPSSASEGDEDLRRQMQDDEQKTRLLEDSVSRLEKEIEVLERGDSAPATAKENAAAPSPVRAPAPSPAKEERKTEVVMNSQQTPVGTPKDKRVSNTPLRTVDGSPMMKAAMYSVEITVEKDKVTGETRVLSSTTLLPRQPLPLGIKVYEDETKVVHAVDGTAENGIHPLSSSEVDELIHKADEVTLSEAGSTAGAAETRGAVEGAARTTPSRREITGVQAQPGEATSGPPGIQPGQEPPVTMIFMGYQNVEDEAETKKVLGLQDTITAELVVIEDAAEPKEPAPPNGSAAEPPTEAASREENQAGPEATTSDPQDLDMKKHRCKCCSIM [PALM]
Reply: 0.0
